I'd be grateful if you could share measured viability, T/C for these entries.
Test system: Hs578T complex spheroid growth, percent test/control
TEST_PROTOCOL: Anticancer human tumor Hs578T cell line growth inhibition [AhR];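 further: luminescent viability signal as a proxy for spheroid growth; spheroids exposed to agents for one week after three days of growth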
PROTOCOL_CONDITIONS: second compound 0.1 µM; first compound 0.316 µM; stronger effect = lower value
Answer format: numeric, % implied, no suffix.

// recorded viability, T/C for COc1cccc2c1C(=O)c1c(O)c3c(c(O)c1C2=O)CC(O)(C(=O)CO)CC3OC1CC(N)C(O)C(C)O1 (centres undefined) + Cc1cncc(-c2nc(NCCc3c[nH]c4ccccc34)c3ncn(C(C)C)c3n2)c1 : 73.5

// recorded viability, T/C for COc1cc(Nc2ncc3c(n2)-c2ccc(Cl)cc2C(c2c(F)cccc2OC)=NC3)ccc1C(=O)O + CC(CO)NC(=O)c1cc(-c2ccc(Cl)cc2)nn(-c2cnn(C)c2)c1=O : 104

// recorded viability, T/C for CC1COCCN1c1cc(C2(S(C)(=N)=O)CC2)nc(-c2ccnc3[nH]ccc23)n1 (centres undefined) + CC(CO)NC(=O)c1cc(-c2ccc(Cl)cc2)nn(-c2cnn(C)c2)c1=O : 108

// recorded viability, T/C for COc1cc(C2c3cc4c(cc3C(OC3OC5COC(C)OC5C(O)C3O)C3COC(=O)C23)OCO4)cc(OC)c1O (centres undefined) + Cc1ccccc1N=Nc1ccc(NC(=O)c2ccnn2C)c(C)c1 : 77.3

// recorded viability, T/C for NS(=O)(=O)OCC1CC(n2ccc3c(NC4CCc5ccccc54)ncnc32)CC1O (centres undefined) + Cc1ccccc1N=Nc1ccc(NC(=O)c2ccnn2C)c(C)c1 : 78.1

// recorded viability, T/C for O=C(C=Cc1cccc(S(=O)(=O)Nc2ccccc2)c1)NO + Cc1ccccc1N=Nc1ccc(NC(=O)c2ccnn2C)c(C)c1 : 94

// recorded viability, T/C for O=C(C=Cc1cccc(S(=O)(=O)Nc2ccccc2)c1)NO + CC(CO)NC(=O)c1cc(-c2ccc(Cl)cc2)nn(-c2cnn(C)c2)c1=O : 102

// recorded viability, T/C for COc1cc(C2c3cc4c(cc3C(OC3OC5COC(C)OC5C(O)C3O)C3COC(=O)C23)OCO4)cc(OC)c1O (centres undefined) + Cc1cncc(-c2nc(NCCc3c[nH]c4ccccc34)c3ncn(C(C)C)c3n2)c1 : 89

// recorded viability, T/C for COc1ccc([C@@H](O)c2cc(-c3ncnc4cc(N5CCOCC5)ccc34)c(F)cc2Cl)nn1 + CC(CO)NC(=O)c1cc(-c2ccc(Cl)cc2)nn(-c2cnn(C)c2)c1=O : 105

// recorded viability, T/C for Nc1ccn(C2OC(CO)C(O)C2(F)F)c(=O)n1 (centres undefined) + Cc1cncc(-c2nc(NCCc3c[nH]c4ccccc34)c3ncn(C(C)C)c3n2)c1 : 62.6

// recorded viability, T/C for COc1ccc([C@@H](O)c2cc(-c3ncnc4cc(N5CCOCC5)ccc34)c(F)cc2Cl)nn1 + Cc1cncc(-c2nc(NCCc3c[nH]c4ccccc34)c3ncn(C(C)C)c3n2)c1 : 104

// recorded viability, T/C for COc1cc(C2c3cc4c(cc3C(OC3OC5COC(C)OC5C(O)C3O)C3COC(=O)C23)OCO4)cc(OC)c1O (centres undefined) + CC(CO)NC(=O)c1cc(-c2ccc(Cl)cc2)nn(-c2cnn(C)c2)c1=O : 87.9

// recorded viability, T/C for Nc1ccccc1NC(=O)c1ccc(CNC(=O)OCc2cccnc2)cc1 + Cc1cncc(-c2nc(NCCc3c[nH]c4ccccc34)c3ncn(C(C)C)c3n2)c1 : 115

// recorded viability, T/C for NS(=O)(=O)OCC1CC(n2ccc3c(NC4CCc5ccccc54)ncnc32)CC1O (centres undefined) + CC(CO)NC(=O)c1cc(-c2ccc(Cl)cc2)nn(-c2cnn(C)c2)c1=O : 69.9

// recorded viability, T/C for CC(C)c1c(-c2ccccc2)nc2c(C#N)c[nH]n2c1=O + CC(CO)NC(=O)c1cc(-c2ccc(Cl)cc2)nn(-c2cnn(C)c2)c1=O : 121

// recorded viability, T/C for O=C(c1cc(Cc2n[nH]c(=O)c3ccccc23)ccc1F)N1CCN(C(=O)C2CC2)CC1 + Cc1ccccc1N=Nc1ccc(NC(=O)c2ccnn2C)c(C)c1 : 109

// recorded viability, T/C for Nc1ncn(C2CC(O)C(CO)O2)c(=O)n1 (centres undefined) + CC(CO)NC(=O)c1cc(-c2ccc(Cl)cc2)nn(-c2cnn(C)c2)c1=O : 103

// recorded viability, T/C for CC1(C)CCC(CN2CCN(c3ccc(C(=O)NS(=O)(=O)c4ccc(NCC5CCOCC5)c([N+](=O)[O-])c4)c(Oc4cnc5[nH]ccc5c4)c3)CC2)=C(c2ccc(Cl)cc2)C1 + CC(CO)NC(=O)c1cc(-c2ccc(Cl)cc2)nn(-c2cnn(C)c2)c1=O : 107

// recorded viability, T/C for O=C(c1cc(Cc2n[nH]c(=O)c3ccccc23)ccc1F)N1CCN(C(=O)C2CC2)CC1 + CC(CO)NC(=O)c1cc(-c2ccc(Cl)cc2)nn(-c2cnn(C)c2)c1=O : 109

// recorded viability, T/C for CC1COCCN1c1cc(-c2ccnn2C)c2ccnc(-c3ccn[nH]3)c2n1 (centres undefined) + Cc1cncc(-c2nc(NCCc3c[nH]c4ccccc34)c3ncn(C(C)C)c3n2)c1 : 55.8

// recorded viability, T/C for CC1COCCN1c1cc(-c2ccnn2C)c2ccnc(-c3ccn[nH]3)c2n1 (centres undefined) + Cc1ccccc1N=Nc1ccc(NC(=O)c2ccnn2C)c(C)c1 : 48.9

// recorded viability, T/C for CC(C)c1c(-c2ccccc2)nc2c(C#N)c[nH]n2c1=O + Cc1ccccc1N=Nc1ccc(NC(=O)c2ccnn2C)c(C)c1 : 108

// recorded viability, T/C for CC(C)c1c(-c2ccccc2)nc2c(C#N)c[nH]n2c1=O + Cc1cncc(-c2nc(NCCc3c[nH]c4ccccc34)c3ncn(C(C)C)c3n2)c1 : 110

// recorded viability, T/C for NS(=O)(=O)OCC1CC(n2ccc3c(NC4CCc5ccccc54)ncnc32)CC1O (centres undefined) + Cc1cncc(-c2nc(NCCc3c[nH]c4ccccc34)c3ncn(C(C)C)c3n2)c1 : 83.3
